# credit: patent US20060193821

System Tested: IL-23 (human, p19/p40 heterodimer) (Homo sapiens, UniProt Q9NPF7;P29460 SEQ:20-189,SEQ:23-328)
Sequence (Q9NPF7 20-189, chain 1 of 2): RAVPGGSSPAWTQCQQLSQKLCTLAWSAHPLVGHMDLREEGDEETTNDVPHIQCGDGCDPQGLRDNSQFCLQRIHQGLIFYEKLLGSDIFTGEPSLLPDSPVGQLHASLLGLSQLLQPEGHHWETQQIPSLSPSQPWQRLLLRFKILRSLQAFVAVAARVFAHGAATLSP
Sequence (P29460 23-328, chain 2 of 2): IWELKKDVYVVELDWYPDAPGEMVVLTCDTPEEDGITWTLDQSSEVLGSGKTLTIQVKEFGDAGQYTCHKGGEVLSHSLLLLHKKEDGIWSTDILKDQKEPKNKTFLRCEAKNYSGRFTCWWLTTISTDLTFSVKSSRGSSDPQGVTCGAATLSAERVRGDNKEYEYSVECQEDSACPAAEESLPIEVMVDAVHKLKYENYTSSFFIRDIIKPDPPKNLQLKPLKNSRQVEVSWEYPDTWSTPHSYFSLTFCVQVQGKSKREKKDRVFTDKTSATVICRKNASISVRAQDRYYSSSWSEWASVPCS
Experimental Details: filter; DPBS Ca Mg
Condition Parameters: tags: R&D Systems, carrier free
Items are presented alongside their recorded pKd.
By convention, pKd is the negative base-10 log of a molar concentration.

// worked examples, pKd included
rRmY clone SEQ 75 (ssRNA, 2'-OMe C,U) RNA: GGGAGAGGAGAGAACGUUCUACAGGUUAAGAGCAGGCUCAGGAAUGGAAGUCGCUGUCGAUCGAUCGAUCGAUG: 6.32
rRmY clone SEQ 77 (ssRNA, 2'-OMe C,U) RNA: GGGAGAGGAGAGAACGUUCUACAACAAAGCAGGCUCAUAGUAAUAUGGAAGUCGCUGUCGAUCGAUCGAUCGAUG: 6.59
rRmY clone SEQ 78 (ssRNA, 2'-OMe C,U) RNA: GGGAGAGGAGAGAACGUUCUACAAAAGAGAGCAGGCCGAAAAGGAGUCGCUCGCUGUCGAUCGAUCGAUCGAUG: 6.91
rRmY clone SEQ 79 (ssRNA, 2'-OMe C,U) RNA: GGGAGAGGAGAGAACGUUCUACAAAAGGCAGGCUCAGGGGAUCACUGGAAGUCGCUGUCGAUCGAUCGAUCGAUG: 6.09

Query block: Name the recorded pKd for rRmY clone SEQ 84 (ssRNA, 2'-OMe C,U) RNA: GGGAGAGGAGAGAACGUUCUACGGAAAAAGAUAUGAAAGAAAGGAUUAAGAGACGCUGUCGAUCGAUCGAUCGAUG .
Result block: 6.22
